Target: monoclonal antibody 13E3
Assay: High-volume screen, fluorescent antibody competition assay (inhibition of binding of CS-045 bPE)
Set-up: species or system mouse
Settings: non-thiazolidinedione hits from high-volume screen
Experimental: Serial dilutions of test compound, fermentation broth, or tissue containing test compound or putative anti-idiotype culture supernatant (20 μl/well) were incubated 20 minutes in 96-well Pandex plates with the appropriate antibody (20 μl/well; 1 μg/ml) plus either goat anti-mouse IgG Latex beads or goat anti-rabbit IgG linked to polystyrene beads (IDEXX) (20 μl/well; 1:2 dilution). Fluorescent reference particles (IDEXX) were included in all assays to minimize well-to-well variation in filtration. […]
pIC50: −log10 of the molar value.
valueKind: pIC50

Answered examples (3):
[[record]]
givensmiles = "O=C(O)CC(=O)Nc1nc(-c2ccc(Cl)cc2)cs1"
valuekind = "pIC50"
datavalue = 6.60

[[record]]
givensmiles = "O=C(Nc1ccc(Br)c(Cl)c1)C(F)(C(F)(F)F)C(F)(F)F"
valuekind = "pIC50"
datavalue = 5.10

[[record]]
givensmiles = "O=P(O)(O)c1ccc(N=Nc2cc(C(F)(F)F)cc3nc(C(F)(F)C(F)F)[nH]c23)cc1"
valuekind = "pIC50"
datavalue = 6.60


[1] O=c1[nH]c(=O)n(Cc2ccc(OCCc3coc(-c4ccccc4)n3)cc2)o1
[2] FC(F)(F)c1nc2cc(Cl)c(Cl)cc2[nH]1
Q: Field: lower recorded pIC50 (choose 1 or 2 ) API: response body contains the label of the selected item.
Result: 2
(2: 5.30, 1: 6.60)

---

Assay: Plasma levels of LY 116196 by fluorescent antibody competition assay
Format: in vivo, mouse
Settings: mouse, plasma, sc; 30 mg s.c., 3 hr after third injection
valueKind: concentration at 3 h (nM)
Kindly provide the numeric value in nM only, without the unit symbol.

Reported concentration at 3 h ( CC(C)(Oc1ccc(C(=O)c2ccc(OC(C)(C)C(=O)O)cc2)cc1)C(=O)O [LY 116196] ) = 320

---

Experiment: Plasma levels of LY 116196 by fluorescent antibody competition assay
Assay type: in vivo, mouse
Settings: mouse, plasma, sc; 300 mg s.c., 1 hr after third injection
valueKind: concentration at 1 h (µM)
Kindly provide the numeric value in µM only, without the unit symbol.

Reported concentration at 1 h ( CC(C)(Oc1ccc(C(=O)c2ccc(OC(C)(C)C(=O)O)cc2)cc1)C(=O)O ) = 528

---

Tested on: monoclonal antibody 8D6
Experiment: Fluorescent antibody competition assay, IC50 determined with MoAb 8D6
Assay type: binding, mouse
pIC50: −log10 of the molar value.
valueKind: pIC50

[[record]]
compound = "Cc1c(C)c2c(c(C)c1O)CCC(C)(COc1ccc(CC3SC(=O)NC3=O)cc1)O2 (stereo not drawn)"
valuekind = "pIC50"
datavalue = 7.11


[I] O=C1NC(=O)C(Cc2ccc3oc(Cc4ccc5ccccc5c4)nc3c2)S1 (stereo not drawn)
[II] CC1(COc2ccc(CC3SC(=O)NC3=O)cc2)CCCCC1 (stereo not drawn)
Q: I or II : whose pIC50 is greater? API: response body contains the label of the selected item.
Result: II

---

Experiment: Plasma levels of LY 116196 by fluorescent antibody competition assay
Format: in vivo, mouse
Conditions: mouse, plasma, sc; 300 mg s.c., 3 hr after third injection
valueKind: concentration at 3 h (µM)
Kindly provide the numeric value in µM only, without the unit symbol.

Reported concentration at 3 h ( CC(C)(Oc1ccc(C(=O)c2ccc(OC(C)(C)C(=O)O)cc2)cc1)C(=O)O ) = 24

---

Target: monoclonal antibody 13E3
Assay: High-volume screen, fluorescent antibody competition assay (inhibition of binding of CS-045 bPE)
Parameters: species or system mouse
Conditions: non-thiazolidinedione hits from high-volume screen
valueKind: IC50 (µM)

Answered examples (5):
[[record]]
molecule = "CCCCCC(=O)c1ccc(OC(C)(C)C(=O)O)cc1 [LY 044047]"
units = "µM"
datavalue = 4

[[record]]
molecule = "O=C(CC(=O)Nc1nc(-c2ccc(Cl)cc2)cs1)NCCO [LY 305329]"
units = "µM"
datavalue = 3.6

[[record]]
molecule = "CCOC(=O)C(C)OP(=O)(Nc1ccccc1)OC(C)C(=O)OCC (centres unmarked) [LY 222072]"
units = "µM"
datavalue = 8

[[record]]
molecule = "N#Cc1cc(F)cc(F)c1NC(=O)c1ccc(Cl)c(Cl)c1 [LY 820960]"
units = "µM"
datavalue = 4

[[record]]
molecule = "O=C(O)COc1ccccc1/C=N/N=C/c1ccccc1OCC(=O)O [LY 281809]"
units = "µM"
datavalue = 2


[P] CN(C)C=Nc1nc2c(s1)CCc1sc(C=NN(C)C)nc1-2 [LY 181036]
[Q] CC(C)(Oc1ccc(C(=O)c2ccc(OC(C)(C)C(=O)O)cc2)cc1)C(=O)O [LY 116196]
Q: P or Q : whose IC50 is greater? API: response body contains the label of the selected item.
Result: P
(P: 2 µM, Q: 0.06 µM)

---

Assay: Plasma levels of LY 116196 by fluorescent antibody competition assay
Assay type: in vivo, mouse
Conditions: mouse, plasma, sc; 100 mg s.c., 1 hr after third injection
valueKind: concentration at 1 h (µM)
Kindly provide the numeric value in µM only, without the unit symbol.

Reported concentration at 1 h ( CC(C)(Oc1ccc(C(=O)c2ccc(OC(C)(C)C(=O)O)cc2)cc1)C(=O)O ) = 83.3

---

Assay: Plasma levels of LY 116196 by fluorescent antibody competition assay
Type: in vivo, mouse
Details: mouse, plasma, sc; 30 mg s.c., 1 hr after third injection
valueKind: concentration at 1 h (µM)
Kindly provide the numeric value in µM only, without the unit symbol.

Reported concentration at 1 h ( CC(C)(Oc1ccc(C(=O)c2ccc(OC(C)(C)C(=O)O)cc2)cc1)C(=O)O [LY 116196] ) = 25

---

Test system: monoclonal antibody 13E3
Assay: High-volume screen, fluorescent antibody competition assay (inhibition of binding of CS-045 bPE)
Design: species or system mouse
Settings: approximately 2 μg/ml final concentration; CS-045 bPE binding to 13E3
valueKind: % inhibition in screen (%)

Answered examples (4):
[[record]]
compound = "O=P(O)(O)c1ccc(N=Nc2cc(C(F)(F)F)cc3nc(C(F)(F)C(F)F)[nH]c23)cc1"
datavalue = 94

[[record]]
compound = "FC(F)(F)c1nc2cc(Cl)c(Cl)cc2[nH]1"
datavalue = 60

[[record]]
compound = "CC(C)(Oc1ccc(/C=C/C(=O)c2ccccc2)cc1)C(=O)O"
datavalue = 87

[[record]]
compound = "CN(C)C=Nc1nc2c(s1)CCc1sc(C=NN(C)C)nc1-2"
datavalue = 90


[a] O=C(CC(=O)Nc1nc(-c2ccc(Cl)cc2)cs1)NCCO
[b] O=C(O)COc1ccccc1/C=N/N=C/c1ccccc1OCC(=O)O
Q: a or b : whose % inhibition in screen is greater? API: response body contains the label of the selected item.
Result: b
(b: 89%, a: 53%)

---

Experiment: Plasma levels of LY 116196 by fluorescent antibody competition assay
Assay type: in vivo, mouse
Conditions: mouse, plasma, sc; 100 mg s.c., 6 hr after third injection
valueKind: concentration at 6 h (nM)
Kindly provide the numeric value in nM only, without the unit symbol.

Reported concentration at 6 h ( CC(C)(Oc1ccc(C(=O)c2ccc(OC(C)(C)C(=O)O)cc2)cc1)C(=O)O ) = 268

---

Assay: Plasma levels of LY 116196 by fluorescent antibody competition assay
Format: in vivo, mouse
Conditions: mouse, plasma, sc; 300 mg s.c., 24 hr after third injection
valueKind: concentration at 24 h (nM)
Kindly provide the numeric value in nM only, without the unit symbol.

Reported concentration at 24 h ( CC(C)(Oc1ccc(C(=O)c2ccc(OC(C)(C)C(=O)O)cc2)cc1)C(=O)O [LY 116196] ) = 452

---

Assay: Plasma levels of LY 116196 by fluorescent antibody competition assay
Format: in vivo, mouse
Conditions: mouse, plasma, sc; 300 mg s.c., 6 hr after third injection
valueKind: concentration at 6 h (µM)
Kindly provide the numeric value in µM only, without the unit symbol.

Reported concentration at 6 h ( CC(C)(Oc1ccc(C(=O)c2ccc(OC(C)(C)C(=O)O)cc2)cc1)C(=O)O ) = 6.4

---

Test system: monoclonal antibody 13E3
Test: High-volume screen, fluorescent antibody competition assay (inhibition of binding of CS-045 bPE)
Design: species or system mouse
Settings: approximately 2 μg/ml final concentration; CS-045 bPE binding to 13E3
valueKind: % inhibition in screen (%)

[[record]]
compound = "CCOC(=O)C(C)OP(=O)(Nc1ccccc1)OC(C)C(=O)OCC (centres unmarked)"
valuekind = "% inhibition in screen"
datavalue = 101


[P] CN1C(=CC(=C(C=Cc2ccc3ccccc3[n+]2C)Oc2ccccc2O)c2ccccc2)C=Cc2ccccc21
[Q] CC(C)(Oc1ccc(C(=O)c2ccc(OC(C)(C)C(=O)O)cc2)cc1)C(=O)O
Q: Field: lower recorded % inhibition in screen (choose P or Q ) API: response body contains the label of the selected item.
Result: P
